// data source = patent US20250161472A1

- assayed_target: T1, human ROR2 (receptor tyrosine kinase-like orphan receptor 2) (human, UniProt Q01974 34-403, limits assumed)
- T1 construct: Antigen of the ELISA, SPR and pH titration assays; also called hROR2
- T1 sequence (Q01974 34-403 limits assumed): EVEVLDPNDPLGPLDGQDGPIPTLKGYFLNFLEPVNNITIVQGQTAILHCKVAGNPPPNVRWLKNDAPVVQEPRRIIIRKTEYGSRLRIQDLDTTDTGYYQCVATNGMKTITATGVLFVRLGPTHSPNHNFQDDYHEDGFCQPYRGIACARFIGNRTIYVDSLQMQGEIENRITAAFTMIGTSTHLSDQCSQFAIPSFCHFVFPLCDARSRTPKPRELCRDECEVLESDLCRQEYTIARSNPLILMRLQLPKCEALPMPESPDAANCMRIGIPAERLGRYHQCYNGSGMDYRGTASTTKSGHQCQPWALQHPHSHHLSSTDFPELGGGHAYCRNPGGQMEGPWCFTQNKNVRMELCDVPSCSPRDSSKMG
- protocol_notes: affinity ELISA on human ROR2, pH 6.0
- Set-up: unit not given here
Record t whenever Affinity ELISA, pH 6.0 is at 1 or higher; record f when lower.

Query :: Test whether the binder LC-G049C (antibody, V domains shown, CPE single point mutant of parent VL 48.6-LC-WT) VH: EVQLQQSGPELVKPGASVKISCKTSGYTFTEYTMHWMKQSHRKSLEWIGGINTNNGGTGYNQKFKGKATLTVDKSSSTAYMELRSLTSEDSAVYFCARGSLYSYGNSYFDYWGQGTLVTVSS VL: QIVLTQSPAIMSASPGEKVTITCSATSSVSYMHWFQQKPGTSPKLWIYCTSNLASGVPARFSGSGSGTSYSLTISRMEAEDAATYYCQQRSSYPFTFGQGTKVEIK records Affinity ELISA, pH 6.0 of 1 or higher.
Result :: f

Query :: Also LC-T096D (antibody, V domains shown, CPE single point mutant of parent VL 48.6-LC-WT) VH: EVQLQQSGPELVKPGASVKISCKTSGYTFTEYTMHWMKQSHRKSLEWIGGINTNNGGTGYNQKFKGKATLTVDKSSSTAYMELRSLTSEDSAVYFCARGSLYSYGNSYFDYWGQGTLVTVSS VL: QIVLTQSPAIMSASPGEKVTITCSATSSVSYMHWFQQKPGTSPKLWIYGTSNLASGVPARFSGSGSGTSYSLTISRMEAEDAATYYCQQRSSYPFDFGQGTKVEIK ?
Result :: f

Query :: Also LC-Y031C (antibody, V domains shown, CPE single point mutant of parent VL 48.6-LC-WT) VH: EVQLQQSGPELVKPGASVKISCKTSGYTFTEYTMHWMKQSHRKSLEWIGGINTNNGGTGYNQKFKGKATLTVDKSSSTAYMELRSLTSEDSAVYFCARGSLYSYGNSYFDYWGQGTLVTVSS VL: QIVLTQSPAIMSASPGEKVTITCSATSSVSCMHWFQQKPGTSPKLWIYGTSNLASGVPARFSGSGSGTSYSLTISRMEAEDAATYYCQQRSSYPFTFGQGTKVEIK ?
Result :: t

Query :: Also LC-G049P (antibody, V domains shown, CPE single point mutant of parent VL 48.6-LC-WT) VH: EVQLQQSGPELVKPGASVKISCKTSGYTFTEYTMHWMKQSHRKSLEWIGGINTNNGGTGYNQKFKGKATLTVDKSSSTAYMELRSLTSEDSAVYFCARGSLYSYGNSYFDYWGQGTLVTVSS VL: QIVLTQSPAIMSASPGEKVTITCSATSSVSYMHWFQQKPGTSPKLWIYPTSNLASGVPARFSGSGSGTSYSLTISRMEAEDAATYYCQQRSSYPFTFGQGTKVEIK ?
Result :: f

Query :: Also LC-H033L (antibody, V domains shown, CPE single point mutant of parent VL 48.6-LC-WT) VH: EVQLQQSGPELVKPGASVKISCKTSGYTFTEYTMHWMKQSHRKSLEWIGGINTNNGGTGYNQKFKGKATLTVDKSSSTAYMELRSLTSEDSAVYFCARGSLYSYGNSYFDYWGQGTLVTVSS VL: QIVLTQSPAIMSASPGEKVTITCSATSSVSYMLWFQQKPGTSPKLWIYGTSNLASGVPARFSGSGSGTSYSLTISRMEAEDAATYYCQQRSSYPFTFGQGTKVEIK ?
Result :: f

Query :: Also LC-S092D (antibody, V domains shown, CPE single point mutant of parent VL 48.6-LC-WT) VH: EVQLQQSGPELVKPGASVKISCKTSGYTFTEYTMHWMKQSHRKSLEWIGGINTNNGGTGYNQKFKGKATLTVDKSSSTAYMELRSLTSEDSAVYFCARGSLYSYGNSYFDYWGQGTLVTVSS VL: QIVLTQSPAIMSASPGEKVTITCSATSSVSYMHWFQQKPGTSPKLWIYGTSNLASGVPARFSGSGSGTSYSLTISRMEAEDAATYYCQQRSDYPFTFGQGTKVEIK ?
Result :: t

Query :: Also LC-H033G (antibody, V domains shown, CPE single point mutant of parent VL 48.6-LC-WT) VH: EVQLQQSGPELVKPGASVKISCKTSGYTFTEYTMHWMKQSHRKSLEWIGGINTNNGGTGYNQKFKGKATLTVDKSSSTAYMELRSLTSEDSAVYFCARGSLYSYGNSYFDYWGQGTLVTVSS VL: QIVLTQSPAIMSASPGEKVTITCSATSSVSYMGWFQQKPGTSPKLWIYGTSNLASGVPARFSGSGSGTSYSLTISRMEAEDAATYYCQQRSSYPFTFGQGTKVEIK ?
Result :: t

Query :: Also LC-F097E (antibody, V domains shown, CPE single point mutant of parent VL 48.6-LC-WT) VH: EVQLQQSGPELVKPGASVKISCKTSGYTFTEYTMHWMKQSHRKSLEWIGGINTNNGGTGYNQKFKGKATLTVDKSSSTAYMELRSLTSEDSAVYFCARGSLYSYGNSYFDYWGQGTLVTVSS VL: QIVLTQSPAIMSASPGEKVTITCSATSSVSYMHWFQQKPGTSPKLWIYGTSNLASGVPARFSGSGSGTSYSLTISRMEAEDAATYYCQQRSSYPFTEGQGTKVEIK ?
Result :: f

Query :: Also LC-G049H (antibody, V domains shown, CPE single point mutant of parent VL 48.6-LC-WT) VH: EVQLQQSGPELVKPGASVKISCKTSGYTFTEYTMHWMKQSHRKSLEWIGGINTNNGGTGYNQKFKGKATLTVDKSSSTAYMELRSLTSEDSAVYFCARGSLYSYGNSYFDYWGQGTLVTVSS VL: QIVLTQSPAIMSASPGEKVTITCSATSSVSYMHWFQQKPGTSPKLWIYHTSNLASGVPARFSGSGSGTSYSLTISRMEAEDAATYYCQQRSSYPFTFGQGTKVEIK ?
Result :: t

Query :: Also LC-Y031D (antibody, V domains shown, CPE single point mutant of parent VL 48.6-LC-WT) VH: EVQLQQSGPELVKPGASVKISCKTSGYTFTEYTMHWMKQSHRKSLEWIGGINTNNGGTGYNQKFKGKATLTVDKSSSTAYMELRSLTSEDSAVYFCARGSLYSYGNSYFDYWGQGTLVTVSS VL: QIVLTQSPAIMSASPGEKVTITCSATSSVSDMHWFQQKPGTSPKLWIYGTSNLASGVPARFSGSGSGTSYSLTISRMEAEDAATYYCQQRSSYPFTFGQGTKVEIK ?
Result :: f
